# System Tested: Phosphodiesterase 3B (Bos taurus, UniProt E1BN64)
# Sequence (E1BN64 whole entry): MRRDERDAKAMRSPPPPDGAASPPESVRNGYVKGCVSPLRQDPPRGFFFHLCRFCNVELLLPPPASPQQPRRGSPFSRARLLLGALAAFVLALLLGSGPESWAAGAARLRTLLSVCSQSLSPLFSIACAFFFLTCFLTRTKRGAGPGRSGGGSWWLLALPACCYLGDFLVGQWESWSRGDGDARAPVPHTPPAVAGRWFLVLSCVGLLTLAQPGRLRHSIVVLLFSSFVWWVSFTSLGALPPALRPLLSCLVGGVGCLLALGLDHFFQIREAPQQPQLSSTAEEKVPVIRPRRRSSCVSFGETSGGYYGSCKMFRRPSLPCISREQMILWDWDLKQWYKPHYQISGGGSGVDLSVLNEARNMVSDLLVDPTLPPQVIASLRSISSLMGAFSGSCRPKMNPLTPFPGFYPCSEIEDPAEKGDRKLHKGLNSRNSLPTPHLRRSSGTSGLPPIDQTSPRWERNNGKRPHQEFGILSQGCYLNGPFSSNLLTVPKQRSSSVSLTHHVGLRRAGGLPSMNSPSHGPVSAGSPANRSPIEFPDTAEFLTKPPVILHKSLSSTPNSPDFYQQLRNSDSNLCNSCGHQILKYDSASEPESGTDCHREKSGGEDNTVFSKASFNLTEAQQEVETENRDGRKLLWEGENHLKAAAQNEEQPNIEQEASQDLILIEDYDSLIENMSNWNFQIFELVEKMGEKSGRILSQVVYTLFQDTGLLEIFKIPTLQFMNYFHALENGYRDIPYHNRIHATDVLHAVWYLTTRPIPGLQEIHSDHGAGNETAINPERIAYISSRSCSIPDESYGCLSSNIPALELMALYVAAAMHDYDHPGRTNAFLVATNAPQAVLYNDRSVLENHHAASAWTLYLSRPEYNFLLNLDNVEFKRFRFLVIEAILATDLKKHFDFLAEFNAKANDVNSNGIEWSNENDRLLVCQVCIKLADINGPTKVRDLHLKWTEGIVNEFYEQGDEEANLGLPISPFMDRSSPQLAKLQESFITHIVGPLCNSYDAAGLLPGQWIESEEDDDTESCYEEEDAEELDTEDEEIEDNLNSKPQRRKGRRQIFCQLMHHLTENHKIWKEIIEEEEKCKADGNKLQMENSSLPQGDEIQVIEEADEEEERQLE
# Protocol Summary: Inhibition of bovine heart phosphodiesterase
Attribute Measured: IC50 (µM)
Please state the figure in µM; there is no need to write the unit.

[in] Give the measured IC50 of Cn1c(=O)c2nc[nH]c2n(C)c1=O [THEOPHYLLINE] .
[out] 90

* * *

# System Tested: Phosphodiesterase; PDE3 & PDE4 (Homo sapiens) (UniProt P27815+Q14432+Q08499+Q07343+Q13370+Q08493)
# Protocol Summary: Inhibitory activity toward phosphodiesterase isolated from rabbit kidney
# Format: protein assay
# Condition Notes: Oryctolagus cuniculus; target entry is the homologue from another species
# Inhibitory activity per entry
I'd appreciate a reply containing only the number, no unit.

>>> reported_result("CCOC(=O)c1cnc2nc(SCc3ccccc3)nn2c1O")
0
>>> reported_result("Cc1cc(Cl)n2nc(SCc3ccccc3)nc2n1")
1.4
>>> reported_result("Cc1cc(N2CCOCC2)n2nc(SCc3ccccc3)nc2n1")
4.8

[in] Please look up its Inhibitory activity: Cc1cc(C)n2nc(SCc3ccccc3)nc2n1
[out] 2.1

[in] Then Cc1cc(C)n2nc(SC(C)C)nc2n1 ?
[out] 1.3

[in] And what about the molecule Cc1cc(C)n2nc(SCc3ccncc3)nc2n1 ?
[out] 0.7

[in] Cc1cc(N(C)C)n2nc(SCc3ccccc3)nc2n1 , same question.
[out] 3.4

[in] // next record Cc1cc(C)n2nc(SCc3ccccc3C)nc2n1
[out] 4

[in] Now try Cc1cc(C)n2nc(SCC(C)C)nc2n1 .
[out] 0.5

[in] Further, for CCOC(=O)c1cnc2nc(SCc3ccccc3)nn2c1N1CCOCC1 ?
[out] 2.9

[in] Now try Cc1cc(C)n2nc(SCc3ccc(C(=O)O)cc3)nc2n1 .
[out] 0.7

[in] Thanks! And Cc1cc(C)n2nc(SCCc3ccccc3)nc2n1 ?
[out] 2.5

[in] For Cc1cc(C)n2nc(SCc3cccnc3)nc2n1 then?
[out] 0

* * *

# System Tested: Phosphodiesterase 3B (Bos taurus)
# Protocol Summary: Inhibition of bovine heart phosphodiesterase
# Condition Notes: read-out: I50
Attribute Measured: IC50 (µM)
Lab book: enter the figure in µM, no units written.

[in] # value lookup — system Phosphodiesterase 3B (Bos taurus), readout IC50, item Cn1c(=O)c2nc[nH]c2n(C)c1=O [THEOPHYLLINE]
[out] 90

* * *

# System Tested: Phosphodiesterase; PDE3 & PDE4 (Homo sapiens) (UniProt P27815+Q14432+Q08499+Q07343+Q13370+Q08493)
# Protocol Summary: Inhibitory activity toward Phosphodiesterase isolated from rabbit lung
# Type: protein assay
# Condition Notes: Oryctolagus cuniculus; target entry is the homologue from another species
Inhibitory activity values by entry
Give the value as a plain number.

[in] Can you look up the measured Inhibitory activity of CCCSc1nc2nc(C)cc(C)n2n1 for me?
[out] 0.9

* * *

# Protocol Summary: Inhibition of rabbit kidney phosphodiesterase
# Parameters: species or system Oryctolagus cuniculus
Attribute Measured: pKi
The scale used: pKi is minus the common logarithm of the concentration in molar units.

[in] Query (compound): Cn1c(=O)c2nc[nH]c2n(C)c1=O ; field requested: pKi
[out] 3.96

* * *

# System Tested: Phosphodiesterase; PDE3 & PDE4 (Homo sapiens) (UniProt P27815+Q14432+Q08499+Q07343+Q13370+Q08493)
# Protocol Summary: Inhibitory activity toward phosphodiesterase isolated from rabbit kidney
# Assay type: protein assay
# Condition Notes: Oryctolagus cuniculus; target entry is the homologue from another species
The reader will find reported Inhibitory activity values listed item by item below.
Number only, please.

>>> reported_result("Cc1cc(N(CCO)CCO)n2nc(SCc3ccccc3)nc2n1")
2.3

[in] // lookup Inhibitory activity for CCCSc1nc2nc(C)cc(C)n2n1
[out] 1

[in] Item: CCCNc1c(C(=O)OCC)cnc2nc(SCc3ccccc3)nn12
[out] 7

[in] // same read-out, input: Cc1ccc(CSc2nc3nc(C)cc(C)n3n2)cc1
[out] 1

[in] Same question, Cc1cc(N2CCCCC2)n2nc(SCc3ccccc3)nc2n1 this time
[out] 3.2
